molecular target: Caspase 2 (Homo sapiens, UniProt P42575)
Sequence (P42575 348-452): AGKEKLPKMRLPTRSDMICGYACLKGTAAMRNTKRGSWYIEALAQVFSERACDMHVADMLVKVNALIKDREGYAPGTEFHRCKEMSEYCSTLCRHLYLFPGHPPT
Sequence (P42575 170-325): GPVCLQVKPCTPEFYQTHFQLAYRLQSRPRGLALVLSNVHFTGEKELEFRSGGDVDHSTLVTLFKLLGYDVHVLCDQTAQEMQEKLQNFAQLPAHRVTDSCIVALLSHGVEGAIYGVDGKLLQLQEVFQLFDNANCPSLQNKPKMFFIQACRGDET

{"columns": ["input-smiles", "IC50"],
 "data": [
  ["N#C[C@H](C[C@@H]1CCNC1=O)NC(=O)[C@@H]1C[C@@H](OC(F)(F)F)CN1C(=O)[C@@H](NC(=O)C1(F)CC1)C1CCCCC1", "> 100 µM"]
]}

----------
system: SARS-CoV-2; assay: Antiviral activity in human lung Calu-3 cells; assay type: cell-based; conditions: Severe acute respiratory syndrome coronavirus 2
pEC50: −log10 of the molar value.

{"columns": ["compound", "pEC50"],
 "data": [
  ["N#C[C@H](C[C@@H]1CCNC1=O)NC(=O)[C@@H]1C[C@@H](OC(F)(F)F)CN1C(=O)[C@@H](NC(=O)C1(F)CC1)C1CCCCC1 [H135]", 6.91]
]}

----------
molecular target: SARS-CoV-2 M^pro (Severe acute respiratory syndrome coronavirus 2, UniProt P0DTD1)

{"columns": ["input-smiles", "Ki, nM"],
 "data": [
  ["N#C[C@H](C[C@@H]1CCNC1=O)NC(=O)[C@@H]1C[C@@H](OC(F)(F)F)CN1C(=O)[C@@H](NC(=O)C1(F)CC1)C1CCCCC1", 156]
]}

----------
biological target: SARS-CoV-2 M^pro (Severe acute respiratory syndrome coronavirus 2); experiment: biochemical; format: biochemical; details: 150 nM enzyme, 30 min pre-incubation at 37°C, mean ± SEM
pIC50: −log10 of the molar value.

{"columns": ["input-smiles", "pIC50"],
 "data": [
  ["CC(C)(C)[C@H](NC(=O)C1(F)CC1)C(=O)N1C[C@H](OC(F)F)C[C@H]1C(=O)N[C@H](C#N)C[C@@H]1CCNC1=O", 6.99],
  ["N#C[C@H](C[C@@H]1CCNC1=O)NC(=O)[C@@H]1C[C@@H](OC(F)F)CN1C(=O)[C@@H](NC(=O)C1(F)CC1)C1CCCCC1", 7.36],
  ["CC(C)(C)OC(=O)N[C@H](C(=O)N1C[C@H](OC(F)F)C[C@H]1C(=O)N[C@H](C#N)C[C@@H]1CCNC1=O)C1CCCCC1", 7.15],
  ["CN(C(=O)[C@@H](NC(=O)OC(C)(C)C)C(C)(C)C)[C@@H](Cc1ccccc1)C(=O)N[C@H](C#N)C[C@@H]1CCNC1=O", 6.20],
  ["CC(C)(C)OC(=O)N[C@H](C(=O)N1C[C@H](OC(F)F)C[C@H]1C(=O)N[C@H](C#N)C[C@@H]1CCNC1=O)C(C)(C)C", 6.82],
  ["N#C[C@H](C[C@@H]1CCNC1=O)NC(=O)[C@@H]1C[C@@H](OC(F)(F)F)CN1C(=O)[C@@H](NC(=O)C1(F)CC1)C1CCCCC1", 7.90],
  ["CC(C)(C)[C@H](NC(=O)C1CCC(F)(F)CC1)C(=O)N1C[C@H](OC(F)F)C[C@H]1C(=O)N[C@H](C#N)C[C@@H]1CCNC1=O", 6.07],
  ["CC(C)(C)[C@H](NC(=O)C(F)(F)F)C(=O)N1C[C@H](OC(F)F)C[C@H]1C(=O)N[C@H](C#N)C[C@@H]1CCNC1=O", 6.98],
  ["CC(C)(C)OC(=O)N[C@H](C(=O)N1C[C@H](OC(F)F)C[C@H]1C(=O)N[C@H](C#N)C[C@@H]1CCNC1=O)C1CCCC1", 7.10],
  ["CC(C)(C)[C@H](NC(=O)N1CC2(COC2)C1)C(=O)N1C[C@H](OC(F)F)C[C@H]1C(=O)N[C@H](C#N)C[C@@H]1CCNC1=O", 6.03],
  ["CC(C)(C)OC(=O)N[C@H](C(=O)N1C[C@H](OC(F)(F)F)C[C@H]1C(=O)N[C@H](C#N)C[C@@H]1CCNC1=O)C(C)(C)C", 7.16],
  ["CC(C)(C)OC(=O)N[C@H](C(=O)N[C@@H](Cc1ccccc1)C(=O)N[C@H](C#N)C[C@@H]1CCNC1=O)C(C)(C)C", 6.39],
  ["CC(C)(C)OC(=O)N[C@H](C(=O)N1C[C@H](OC(C)(C)C)C[C@H]1C(=O)N[C@H](C#N)C[C@@H]1CCNC1=O)C(C)(C)C", 6.51]
]}

----------
Collected pIC50 values appear next to each entry.
target: SARS-CoV-2 M^pro (Severe acute respiratory syndrome coronavirus 2, UniProt P0DTD1); experiment: biochemical; type: biochemical; conditions: 150 nM enzyme, 30 min pre-incubation at 37°C
pIC50: −log10 of the molar value.
recorded-metric: pIC50

{"columns": ["compound", "result-comparator", "observed-result"],
 "data": [
  ["CO[C@@H]1C[C@@H](C(=O)N[C@H](C#N)C[C@@H]2CCNC2=O)N(C(=O)[C@@H](NC(=O)OC(C)(C)C)C(C)(C)C)C1 [H138]", "=", 5.53],
  ["CC(C)(C)OC(=O)N[C@H](C(=O)N1C[C@H](OCc2ccccc2)C[C@H]1C(=O)N[C@H](C#N)C[C@@H]1CCNC1=O)C(C)(C)C [H139]", "=", 5.47],
  ["CC(C)(C)OC(=O)N[C@H](C(=O)N1C[C@H](Oc2ccccc2)C[C@H]1C(=O)N[C@H](C#N)C[C@@H]1CCNC1=O)C(C)(C)C [H140]", "=", 5.17],
  ["CC(C)(C)OC(=O)N1C[C@H](OC(F)F)C[C@@H]1C(=O)N1C[C@H](OC(F)F)C[C@H]1C(=O)N[C@H](C#N)C[C@@H]1CCNC1=O [H141]", "<", 4.60]
]}

----------
target: Cathepsin B (Homo sapiens)
pIC50: −log10 of the molar value.
recorded-metric: pIC50

{"columns": ["input-smiles", "observed-result"],
 "data": [
  ["N#C[C@H](C[C@@H]1CCNC1=O)NC(=O)[C@@H]1C[C@@H](OC(F)(F)F)CN1C(=O)[C@@H](NC(=O)C1(F)CC1)C1CCCCC1", "< 4.00"]
]}
